B1: CLPTM1 (parent)
chain: LGCYAVYSLLYLEHKGWYSWVLSM

variants of: B1; experiment: protein stability index of a GFP-peptide fusion (GPS, HEK-293T) (PSI 1-6); higher = more stable; details: c terminus: a fixed tail appended;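 note: lentivirally expressed fusions sorted by FACS into six bins by GFP to DsRed ratio, PSI derived from sequencing read proportions per bin multiplied by bin number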
Parameter threshold = 3. Response is rule met when protein stability index meets or exceeds it, else rule not met.

>>> label_value("LGCYAVYSLLYLEHKTWYSWVLSM [G16T]")
"rule not met"
>>> label_value("LGCYAVYSRLYLEHKGWYSWVLSM [L9R]")
"rule not met"
>>> label_value("LGCYAVYSLLTLEHKGWYSWVLSM [Y11T]")
"rule not met"
>>> label_value("LGCYAFYSLLYLEHKGWYSWVLSM [V6F]")
"rule met"
>>> label_value("LGCYAVYSLCYLEHKGWYSWVLSM [L10C]")
"rule not met"
>>> label_value("LGCYAVYSLLYREHKGWYSWVLSM [L12R]")
"rule met"
>>> label_value("LGCYAVYSLLYLEHKGWYSEVLSM [W20E]")
"rule met"
>>> label_value("LGCYAVYSPLYLEHKGWYSWVLSM [L9P]")
"rule met"
>>> label_value("LGCYAVYSLLYLEHKGKYSWVLSM [W17K]")
"rule met"
>>> label_value("LGCYAVYALLYLEHKGWYSWVLSM [S8A]")
"rule not met"
>>> label_value("LGCYAVYSLLYLEHKGWYSWVLSQ [M24Q]")
"rule met"
>>> label_value("LGCYAWYSLLYLEHKGWYSWVLSM [V6W]")
"rule not met"
>>> label_value("LGCYAVYSLLYLEHKGDYSWVLSM [W17D]")
"rule not met"
>>> label_value("LGCYAVYSLLYLEHKGWYSWVLPM [S23P]")
"rule met"
>>> label_value("LGCYAVYSLLYLIHKGWYSWVLSM [E13I]")
"rule met"
>>> label_value("LGCYAVYSLLWLEHKGWYSWVLSM [Y11W]")
"rule not met"
>>> label_value("LGCYAVYSLLYLEHKGWYSWILSM [V21I]")
"rule not met"
>>> label_value("LGCYAVYSLLYDEHKGWYSWVLSM [L12D]")
"rule not met"
>>> label_value("LGCYAVYSLLYLEHKGFYSWVLSM [W17F]")
"rule not met"
>>> label_value("LGCYAVYSLLYLEHKGWYSWVTSM [L22T]")
"rule not met"
>>> label_value("LGCYAVYSLLYLEHKGWYSWVLQM [S23Q]")
"rule met"
>>> label_value("LGCYAVYGLLYLEHKGWYSWVLSM [S8G]")
"rule met"
>>> label_value("LGCYAVYSLLYLMHKGWYSWVLSM [E13M]")
"rule not met"
>>> label_value("LGCYAVYELLYLEHKGWYSWVLSM [S8E]")
"rule not met"
>>> label_value("LGCYAVYSLFYLEHKGWYSWVLSM [L10F]")
"rule met"
>>> label_value("LGCYAEYSLLYLEHKGWYSWVLSM [V6E]")
"rule not met"
>>> label_value("LGCYAVYSLLMLEHKGWYSWVLSM [Y11M]")
"rule not met"
>>> label_value("LGCAAVYSLLYLEHKGWYSWVLSM [Y4A]")
"rule met"
>>> label_value("LGCYAVYSLLYLEHKGWYSWVLSY [M24Y]")
"rule not met"
>>> label_value("LGCYHVYSLLYLEHKGWYSWVLSM [A5H]")
"rule not met"
>>> label_value("LGCYMVYSLLYLEHKGWYSWVLSM [A5M]")
"rule not met"
>>> label_value("LGCYAVYSLLYLEHYGWYSWVLSM [K15Y]")
"rule not met"
>>> label_value("LGCYAVYSLLYLEHKGWYSWYLSM [V21Y]")
"rule not met"
>>> label_value("LGCYAVYSLLYLEHKGWYSWPLSM [V21P]")
"rule met"
>>> label_value("LGCYAVYSLLYLEHKGWYYWVLSM [S19Y]")
"rule not met"
>>> label_value("QGCYAVYSLLYLEHKGWYSWVLSM [L1Q]")
"rule met"
>>> label_value("LGCYAVYSLLYLEHKGWYSWVLLM [S23L]")
"rule not met"
>>> label_value("LTCYAVYSLLYLEHKGWYSWVLSM [G2T]")
"rule met"
>>> label_value("LGCYAVYSLLYLEHKGWYSWTLSM [V21T]")
"rule not met"
>>> label_value("LGCYAVYSLLNLEHKGWYSWVLSM [Y11N]")
"rule not met"
>>> label_value("LGCYARYSLLYLEHKGWYSWVLSM [V6R]")
"rule not met"
>>> label_value("LGCYAVYSLLYLEHKGWYEWVLSM [S19E]")
"rule not met"
>>> label_value("LGCYAVYSLLYLEFKGWYSWVLSM [H14F]")
"rule met"
>>> label_value("LGCYCVYSLLYLEHKGWYSWVLSM [A5C]")
"rule met"
>>> label_value("LGCYAVYSLLYLEHKRWYSWVLSM [G16R]")
"rule not met"
>>> label_value("NGCYAVYSLLYLEHKGWYSWVLSM [L1N]")
"rule met"
>>> label_value("LGCYAVYSLLYLEHKGWYSWVLSS [M24S]")
"rule not met"
>>> label_value("LGCQAVYSLLYLEHKGWYSWVLSM [Y4Q]")
"rule not met"
>>> label_value("LGCYRVYSLLYLEHKGWYSWVLSM [A5R]")
"rule not met"
>>> label_value("LGCCAVYSLLYLEHKGWYSWVLSM [Y4C]")
"rule met"
>>> label_value("LGCYAVYSLLYLEHVGWYSWVLSM [K15V]")
"rule not met"
>>> label_value("TGCYAVYSLLYLEHKGWYSWVLSM [L1T]")
"rule met"
>>> label_value("LDCYAVYSLLYLEHKGWYSWVLSM [G2D]")
"rule met"
>>> label_value("LGCYAVYSLYYLEHKGWYSWVLSM [L10Y]")
"rule not met"
>>> label_value("LGCYAVYSLLYLEHKGYYSWVLSM [W17Y]")
"rule not met"
>>> label_value("LGWYAVYSLLYLEHKGWYSWVLSM [C3W]")
"rule not met"
>>> label_value("LGCYAVYSLLQLEHKGWYSWVLSM [Y11Q]")
"rule met"
>>> label_value("LGCYAVYSLLYPEHKGWYSWVLSM [L12P]")
"rule met"
>>> label_value("LGCYAVCSLLYLEHKGWYSWVLSM [Y7C]")
"rule met"
>>> label_value("LGCYAVYSLLYLEHKGWYSWVLSI [M24I]")
"rule not met"
>>> label_value("LGCYACYSLLYLEHKGWYSWVLSM [V6C]")
"rule met"
>>> label_value("LGCYAVHSLLYLEHKGWYSWVLSM [Y7H]")
"rule not met"
>>> label_value("LGCYAVYSLLSLEHKGWYSWVLSM [Y11S]")
"rule not met"
>>> label_value("LGCYAVYSLAYLEHKGWYSWVLSM [L10A]")
"rule not met"
>>> label_value("LGCYAVYSLLYLEHWGWYSWVLSM [K15W]")
"rule not met"
>>> label_value("LGCYAVYSLLYLEHKGWYSWRLSM [V21R]")
"rule not met"
>>> label_value("LGCYAVYILLYLEHKGWYSWVLSM [S8I]")
"rule met"
>>> label_value("LGCYAVYSLLYLEHKGWYSWVLSD [M24D]")
"rule not met"
>>> label_value("MGCYAVYSLLYLEHKGWYSWVLSM [L1M]")
"rule met"
>>> label_value("LGCYAIYSLLYLEHKGWYSWVLSM [V6I]")
"rule met"
>>> label_value("LGFYAVYSLLYLEHKGWYSWVLSM [C3F]")
"rule not met"
>>> label_value("LGCYAVYSLLYLEHMGWYSWVLSM [K15M]")
"rule met"
>>> label_value("LGCYAVYSLLYLEHKGWYSWVQSM [L22Q]")
"rule not met"
>>> label_value("LVCYAVYSLLYLEHKGWYSWVLSM [G2V]")
"rule not met"
>>> label_value("LGCYATYSLLYLEHKGWYSWVLSM [V6T]")
"rule not met"
>>> label_value("LGCYAVYSLLYLEHKGWYSWSLSM [V21S]")
"rule met"
>>> label_value("LGCYAVYHLLYLEHKGWYSWVLSM [S8H]")
"rule not met"
>>> label_value("LGCYAVQSLLYLEHKGWYSWVLSM [Y7Q]")
"rule not met"
>>> label_value("LRCYAVYSLLYLEHKGWYSWVLSM [G2R]")
"rule met"
>>> label_value("LGCYAVYSLLYLEHKGWYRWVLSM [S19R]")
"rule not met"
>>> label_value("LGCYAVYSLRYLEHKGWYSWVLSM [L10R]")
"rule not met"
>>> label_value("LGCYAVYSTLYLEHKGWYSWVLSM [L9T]")
"rule not met"
